Tested on: L1210 leukemia ip in BDF1 mice, survival T/C
Experiment: NCI In Vivo Anticancer Drug Screen. Data for tumor model L1210 Leukemia (intraperitoneal) in B6D2F1 (BDF1) mice
Details: endpoint: mean survival time; dose: 400.0 mg/kg/injection; schedule: Q01DX009 (ip); vehicle: saline with Tween-80; higher = longer survival
Toxic doses and inconclusive results are not listed.
compounds and their reported T/C
experimental-readout: T/C

[[record]]
compound = "CCOC(=O)CCC(NC(=O)c1ccccc1NC)C(=O)OCC (stereo not drawn)"
system_name = "L1210 leukemia ip in BDF1 mice, survival T/C"
reported_measurement = "101 % of control"

[[record]]
compound = "COc1ccccc1C(=O)CC(O)(C(F)(F)F)C(F)(F)F"
system_name = "L1210 leukemia ip in BDF1 mice, survival T/C"
reported_measurement = "103 % of control"

[[record]]
compound = "N#CC(CC(=O)c1ccc(Cl)cc1)c1ccccc1 (stereo not drawn)"
system_name = "L1210 leukemia ip in BDF1 mice, survival T/C"
reported_measurement = "91 % of control"

[[record]]
compound = "C(=N\\N=C\\c1ccccc1)/c1ccccc1"
system_name = "L1210 leukemia ip in BDF1 mice, survival T/C"
reported_measurement = "100 % of control"

[[record]]
compound = "c1ccc2c(c1)C1CCC2c2ccccc21"
system_name = "L1210 leukemia ip in BDF1 mice, survival T/C"
reported_measurement = "97 % of control"

[[record]]
compound = "COc1ccc(OCC(=O)O)c(C=O)c1"
system_name = "L1210 leukemia ip in BDF1 mice, survival T/C"
reported_measurement = "91 % of control"

[[record]]
compound = "O=C(Nc1cccnc1)C1=Cc2ccccc2OC1"
system_name = "L1210 leukemia ip in BDF1 mice, survival T/C"
reported_measurement = "105 % of control"

[[record]]
compound = "O=C(O)CC(NC(=O)OCc1ccccc1)C(=O)OCc1ccccc1 (stereo not drawn)"
system_name = "L1210 leukemia ip in BDF1 mice, survival T/C"
reported_measurement = "91 % of control"

[[record]]
compound = "CCOC(=O)C(CC)c1nc2ccccc2o1 (stereo not drawn)"
system_name = "L1210 leukemia ip in BDF1 mice, survival T/C"
reported_measurement = "94 % of control"

[[record]]
compound = "O=C(Nc1ccccc1)c1ccc2c(c1)C(=O)OC2=O"
system_name = "L1210 leukemia ip in BDF1 mice, survival T/C"
reported_measurement = "89 % of control"

[[record]]
compound = "CCOC(=O)N1CCC2(CC1)NC(=O)c1ccccc1N2"
system_name = "L1210 leukemia ip in BDF1 mice, survival T/C"
reported_measurement = "97 % of control"

[[record]]
compound = "Cc1ccc(S(=O)(=O)Oc2cc(C)ccc2C)cc1"
system_name = "L1210 leukemia ip in BDF1 mice, survival T/C"
reported_measurement = "101 % of control"

[[record]]
compound = "Nc1c(C(=O)O)cccc1C(=O)O"
system_name = "L1210 leukemia ip in BDF1 mice, survival T/C"
reported_measurement = "107 % of control"


###

Tested on: L1210 leukemia ip in BDF1 mice, survival T/C
Assay: NCI In Vivo Anticancer Drug Screen. Data for tumor model L1210 Leukemia (intraperitoneal) in B6D2F1 (BDF1) mice
Details: endpoint: mean survival time; dose: 300.0 mg/kg/injection; schedule: Q01DX001 (ip); vehicle: saline; higher = longer survival
Toxic doses and inconclusive results are not listed.
molecules and their reported T/C
experimental-readout: T/C

[[record]]
molecule = "O=S1(=O)CC2(N3CCCC3)CCCCC21 (configuration not stated)"
experimental_readout = "T/C"
reported_measurement = "100 % of control"

[[record]]
molecule = "CCOC(=O)C(=N\\Nc1cc(C)ccc1C)/C(C)=N\\NC(N)=S"
experimental_readout = "T/C"
reported_measurement = "97 % of control"

[[record]]
molecule = "CC(=O)Nc1nc(NC(C)=O)c2nc(CCN(C)c3ccc(C(=O)O)cc3)cnc2n1"
experimental_readout = "T/C"
reported_measurement = "101 % of control"

[[record]]
molecule = "Cc1ccc(SCC#CCOc2ccc(Cl)cc2)cc1"
experimental_readout = "T/C"
reported_measurement = "93 % of control"

[[record]]
molecule = "O=C(O)C12CCCC(CCC1)C2=O"
experimental_readout = "T/C"
reported_measurement = "100 % of control"

[[record]]
molecule = "O=C(CC1C=CCC1)NCc1ccccc1 (configuration not stated)"
experimental_readout = "T/C"
reported_measurement = "93 % of control"

[[record]]
molecule = "CCC(COC(=O)c1ccc([N+](=O)[O-])cc1)NCCC1CCCCC1 (configuration not stated)"
experimental_readout = "T/C"
reported_measurement = "103 % of control"

